system.under.test: UniProtKB Q9P1W9
Sequence (Q9P1W9 whole entry, looked up): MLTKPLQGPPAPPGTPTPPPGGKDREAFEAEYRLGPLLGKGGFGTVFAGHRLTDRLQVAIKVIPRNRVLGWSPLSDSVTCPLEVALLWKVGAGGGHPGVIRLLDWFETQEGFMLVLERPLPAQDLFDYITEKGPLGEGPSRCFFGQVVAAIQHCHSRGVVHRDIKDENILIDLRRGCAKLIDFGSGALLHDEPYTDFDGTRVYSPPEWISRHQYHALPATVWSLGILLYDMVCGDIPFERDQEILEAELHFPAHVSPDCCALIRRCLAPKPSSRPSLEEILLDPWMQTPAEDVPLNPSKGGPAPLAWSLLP
assay.protocol: KINOMEscan competition binding
measurement.context: compound 10.0 µM
Kindly supply the reported kinase still bound, per cent of control values for the records listed here.
Respond numerically; units are % and should not be typed.

IN: Given the entry CCC(=O)N1CCN(c2ccc(-n3c(=O)ccc4cnc5ccc(-c6cnc7ccccc7c6)cc5c43)cc2C(F)(F)F)CC1 , report its measured kinase still bound, per cent of control.
OUT: 62

IN: Consider next the molecule CC(C)n1nc(-c2cc3cc(O)ccc3[nH]2)c2c(N)ncnc21 in the same way.
OUT: 0.6

IN: Consider next the molecule COc1ccc(-c2ccc3c(N4CCOCC4)nc(N4C[C@@H](C)O[C@@H](C)C4)nc3n2)cc1CO in the same way.
OUT: 100

IN: Consider next the molecule COC(=O)Nc1ccc(-c2nc(N3CCOCC3)c3cnn(C4CCN(C(=O)OC)CC4)c3n2)cc1 in the same way.
OUT: 100
